Data provenance is paper PMC6522510.

Tested on: MV4-11
Design: species or system AML cell lines (8); Primary HTS, single concentration about 10 uM, Cell Titer Glo viability; log10 luminescence, per cent inhibition relative to cycloheximide control
Conditions: 72 h, relative to cycloheximide control, log10 luminescence, inhibitor, MV4-11 %inh, 10 µM
Recorded measurements of MV4-11 %inh, one per entry

Illustrative cases are given below, each with its answer.
- Compound: "COCCOC(=O)C1=C(C)NC(C)=C(C(=O)OC(C)C)C1c1cccc([N+](=O)[O-])c1 (stereo not drawn) [SJ000285435-8, NIMODIPINE]"
  MV4-11 %inh: "7.361%"
- Compound: "OC[C@H]1O[C@@H](O[C@@H]2[C@@H](CO)OC(O)(CO)[C@H]2O)[C@H](O)[C@@H](O)[C@H]1O (mixture of isomers)"
  MV4-11 %inh: "2.037%"

Here is another compound to look at.
Q: Recorded MV4-11 %inh for CCCC(CCC)C(=O)O , please?
Ans: -0.02212%
